- target.entity: human recombinant Aminopeptidase N (Homo sapiens)
- Sequence (P15144 whole entry): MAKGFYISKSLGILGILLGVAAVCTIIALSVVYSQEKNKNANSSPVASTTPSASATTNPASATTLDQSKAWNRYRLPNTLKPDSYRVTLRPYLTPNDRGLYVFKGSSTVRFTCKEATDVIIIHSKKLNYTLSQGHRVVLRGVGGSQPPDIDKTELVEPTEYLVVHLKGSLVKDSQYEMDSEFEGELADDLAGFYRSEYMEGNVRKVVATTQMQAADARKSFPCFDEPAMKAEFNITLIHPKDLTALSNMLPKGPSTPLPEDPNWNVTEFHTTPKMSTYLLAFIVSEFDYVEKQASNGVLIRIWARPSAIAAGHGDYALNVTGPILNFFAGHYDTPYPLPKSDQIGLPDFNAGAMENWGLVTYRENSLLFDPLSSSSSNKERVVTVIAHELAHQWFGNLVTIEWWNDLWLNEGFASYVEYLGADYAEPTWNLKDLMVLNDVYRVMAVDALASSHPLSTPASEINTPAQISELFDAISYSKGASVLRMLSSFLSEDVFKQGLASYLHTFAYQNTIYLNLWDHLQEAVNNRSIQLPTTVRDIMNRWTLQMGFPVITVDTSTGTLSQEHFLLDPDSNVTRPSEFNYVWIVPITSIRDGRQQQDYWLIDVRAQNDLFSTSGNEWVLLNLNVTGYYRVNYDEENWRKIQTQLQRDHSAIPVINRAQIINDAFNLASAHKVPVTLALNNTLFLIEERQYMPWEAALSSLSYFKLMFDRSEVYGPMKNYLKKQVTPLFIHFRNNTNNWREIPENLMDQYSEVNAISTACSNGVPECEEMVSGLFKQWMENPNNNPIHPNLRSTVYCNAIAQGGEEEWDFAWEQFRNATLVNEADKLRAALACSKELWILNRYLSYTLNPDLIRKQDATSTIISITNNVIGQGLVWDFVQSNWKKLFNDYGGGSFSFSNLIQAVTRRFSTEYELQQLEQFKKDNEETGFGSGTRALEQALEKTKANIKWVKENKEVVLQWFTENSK
- experiment.notes: Measurement of APN activity (fluorogenic substrate (Ala)2-R110)
- Type: biochemical
- cond: human recombinant APN approx. 5 nM, substrate 0.5 μM, pH 7.5
Lab note: compare IC50 with 0.2 µM, writing true if less and false if equal or more.

compound="CC(C)(CCNC(=O)CC(N)Cc1cc(F)ccc1F)CNC(=O)C(O)C(N)Cc1ccccc1 (centres unmarked) [drawing 36]" target_entity="human recombinant Aminopeptidase N (Homo sapiens)" cat=false
compound="CC(C)(CNC(=O)CC(N)Cc1cc(F)ccc1F)CNC(=O)C1OC(=O)NC1Cc1ccc(-c2ccccc2)cc1 (centres unmarked) [drawing 69]" target_entity="human recombinant Aminopeptidase N (Homo sapiens)" cat=false
compound="NC(CC(=O)NCC1(CNC(=O)C(O)C(N)Cc2ccccc2)CCC1)Cc1cc(F)ccc1F (centres unmarked) [drawing 57]" target_entity="human recombinant Aminopeptidase N (Homo sapiens)" cat=true
compound="CCCCCCCC(=O)OC(C(=O)NCCCCNC(=O)CC(N)Cc1cc(F)ccc1F)C(N)Cc1ccccc1 (centres unmarked) [drawing 50]" target_entity="human recombinant Aminopeptidase N (Homo sapiens)" cat=false
compound="CC(C)(CNC(=O)CC(N)Cc1ccccc1)CNC(=O)CC(O)C(N)Cc1ccccc1 (centres unmarked) [drawing 24]" target_entity="human recombinant Aminopeptidase N (Homo sapiens)" cat=false
compound="NC(CC(=O)Nc1cccc(NC(=O)C(O)C(N)Cc2ccccc2)c1)Cc1cc(F)ccc1F (centres unmarked) [drawing 64]" target_entity="human recombinant Aminopeptidase N (Homo sapiens)" cat=false
compound="CCC(CC)(CNC(=O)CC(N)Cc1ccccc1)CNC(=O)C(O)C(N)Cc1ccccc1 (centres unmarked) [drawing 22]" target_entity="human recombinant Aminopeptidase N (Homo sapiens)" cat=false
compound="CC(C)(CNC(=O)CC(N)Cc1ccccc1)CNC(=O)C(O)C(N)Cc1ccccc1 (centres unmarked) [drawing 21]" target_entity="human recombinant Aminopeptidase N (Homo sapiens)" cat=true
compound="CCCCCCCCCC(=O)OC(C(=O)NCC(C)(C)CNC(=O)CC(N)Cc1cc(F)ccc1F)C(N)Cc1ccccc1 (centres unmarked) [drawing 48]" target_entity="human recombinant Aminopeptidase N (Homo sapiens)" cat=false
compound="CC(C)(CNC(=O)CC(CN)Cc1ccccc1)CNC(=O)C(O)C(N)Cc1ccccc1 (centres unmarked) [drawing 34]" target_entity="human recombinant Aminopeptidase N (Homo sapiens)" cat=true
compound="NC(CC(=O)NCCCCCCNC(=O)C(O)C(N)Cc1ccccc1)Cc1ccccc1 (centres unmarked) [drawing 28]" target_entity="human recombinant Aminopeptidase N (Homo sapiens)" cat=false
compound="NC(CC(=O)N1CCN(C(=O)CC(O)C(N)Cc2ccccc2)CC1)Cc1ccccc1 (centres unmarked) [drawing 16]" target_entity="human recombinant Aminopeptidase N (Homo sapiens)" cat=false
compound="NC(CC(=O)NCCNC(=O)C(O)C(N)Cc1ccccc1)Cc1ccc2ccccc2c1 (centres unmarked) [drawing 13]" target_entity="human recombinant Aminopeptidase N (Homo sapiens)" cat=false
compound="NC(CC(=O)NCCCCNC(=O)C(O)C(N)Cc1ccccc1)Cc1cc(F)ccc1F (centres unmarked) [drawing 25]" target_entity="human recombinant Aminopeptidase N (Homo sapiens)" cat=true
compound="CCCCCCCCCCCCCCCCNC(CC(=O)NCC(C)(C)CNC(=O)C(O)C(Cc1ccccc1)NCCCCCCCCCCCCCCCC)Cc1cc(F)ccc1F (centres unmarked) [drawing 66]" target_entity="human recombinant Aminopeptidase N (Homo sapiens)" cat=false
compound="CC(C)(CNC(=O)C(O)C(N)Cc1ccccc1)CNC(=O)C(CC(=O)O)C(N)Cc1cc(F)ccc1F (centres unmarked) [drawing 56]" target_entity="human recombinant Aminopeptidase N (Homo sapiens)" cat=false
compound="CC(C)(CNC(=O)CC(N)Cc1cc(F)ccc1F)CNC(=O)C(O)C(N)Cc1ccc(-c2cncnc2)cc1 (centres unmarked) [drawing 77]" target_entity="human recombinant Aminopeptidase N (Homo sapiens)" cat=true
compound="CCCCCCCCCCCCCC(=O)NC(CC(=O)NCC(C)(C)CNC(=O)C(O)C(Cc1ccccc1)NC(=O)CCCCCCCCCCCCC)Cc1cc(F)ccc1F (centres unmarked) [drawing 58]" target_entity="human recombinant Aminopeptidase N (Homo sapiens)" cat=false
compound="CCCCCC(=O)OC(C(=O)NCC(C)(C)CNC(=O)CC(N)Cc1cc(F)ccc1F)C(N)Cc1ccccc1 (centres unmarked) [drawing 55]" target_entity="human recombinant Aminopeptidase N (Homo sapiens)" cat=false
compound="NC(CC(=O)NCCCCNC(=O)C(O)C(N)Cc1ccc(Br)cc1)Cc1cc(F)ccc1F (centres unmarked) [drawing 61]" target_entity="human recombinant Aminopeptidase N (Homo sapiens)" cat=true

meta.source: patent US20120258960A1
